# target-of-assay: EGFR l740duplPVAK (Homo sapiens, UniProt P00533, DUP740-745)
# assay-overview: Ba/F3 cell viability, Cell Titer Glo
# recorded-conditions: read-out: IC50 Values; Ba/F3 cells expressing EGFR l740duplPVAK, 72 hours
metric-name: IC50 (nM)
Express the result in nM but write the number alone.

IC50 for `C=CC(=O)N1CC[C@@H](Oc2nc(Nc3ccc(N4CCC(N5CCN(C)CC5)CC4)cc3)c(C(N)=O)nc2CC)C1` ?
67.7

---

# target-of-assay: EGFR Ex19del/T790M/L792H (Homo sapiens, UniProt P00533, DEL746-750/L792H/T790M)
# Sequence (P00533 with tags, fused parts or gaps DEL746-750/T790M/L792H): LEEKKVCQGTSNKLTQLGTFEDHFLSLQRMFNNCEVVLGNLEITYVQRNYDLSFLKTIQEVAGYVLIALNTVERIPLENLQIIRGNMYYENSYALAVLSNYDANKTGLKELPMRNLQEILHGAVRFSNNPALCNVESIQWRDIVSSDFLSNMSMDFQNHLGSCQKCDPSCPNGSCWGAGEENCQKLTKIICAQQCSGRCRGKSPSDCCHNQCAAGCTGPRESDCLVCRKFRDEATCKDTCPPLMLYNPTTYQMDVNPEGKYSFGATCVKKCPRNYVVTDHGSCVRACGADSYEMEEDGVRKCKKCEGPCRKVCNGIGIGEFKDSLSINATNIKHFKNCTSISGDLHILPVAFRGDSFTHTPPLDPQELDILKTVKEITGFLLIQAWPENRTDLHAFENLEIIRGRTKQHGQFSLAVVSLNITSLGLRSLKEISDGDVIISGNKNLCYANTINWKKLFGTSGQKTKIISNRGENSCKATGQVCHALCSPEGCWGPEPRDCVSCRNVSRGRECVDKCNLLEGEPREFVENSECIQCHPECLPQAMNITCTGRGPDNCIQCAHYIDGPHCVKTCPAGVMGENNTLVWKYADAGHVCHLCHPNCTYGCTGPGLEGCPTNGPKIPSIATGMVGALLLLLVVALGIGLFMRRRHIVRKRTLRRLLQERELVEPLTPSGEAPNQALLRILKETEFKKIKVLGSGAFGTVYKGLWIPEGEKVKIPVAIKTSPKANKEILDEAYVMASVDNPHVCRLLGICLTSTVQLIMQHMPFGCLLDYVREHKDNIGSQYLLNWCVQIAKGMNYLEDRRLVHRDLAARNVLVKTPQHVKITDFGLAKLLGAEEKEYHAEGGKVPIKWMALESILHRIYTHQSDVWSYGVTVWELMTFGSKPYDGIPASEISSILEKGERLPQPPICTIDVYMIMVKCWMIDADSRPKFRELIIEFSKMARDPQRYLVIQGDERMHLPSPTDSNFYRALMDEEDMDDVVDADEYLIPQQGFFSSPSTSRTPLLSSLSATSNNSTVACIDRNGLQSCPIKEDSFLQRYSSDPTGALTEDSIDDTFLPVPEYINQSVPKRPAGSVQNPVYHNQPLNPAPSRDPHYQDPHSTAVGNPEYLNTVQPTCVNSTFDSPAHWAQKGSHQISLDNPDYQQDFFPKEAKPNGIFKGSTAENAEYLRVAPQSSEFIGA
# assay-overview: Ba/F3 cell viability, Cell Titer Glo
# recorded-conditions: read-out: IC50 Values; Ba/F3 cells expressing EGFR Ex19del/T790M/L792H, 72 hours
metric-name: pIC50
API: returns pIC50 as number; meaning -log10 of concentration in mol/L.

> print(dat)
                                test.smiles  readout.number
1  COc1cc(N2CCC(N)CC2)ccc1Nc1ncc(Cl)c(-c2c[nH]c3ccccc23)n1            5.96

Proceeding to the next compound to report its pIC50.
pIC50 for `C=CC(=O)N1CC[C@@H](Oc2nc(Nc3ccc(N4CCC(N5CCN(C)CC5)CC4)cc3)c(C(N)=O)nc2CC)C1` ?
8.32

---

# target-of-assay: EGFR L858R G796S (Homo sapiens, UniProt P00533, G796S/L858R)
# Sequence (P00533 25-1210 G796S/L858R): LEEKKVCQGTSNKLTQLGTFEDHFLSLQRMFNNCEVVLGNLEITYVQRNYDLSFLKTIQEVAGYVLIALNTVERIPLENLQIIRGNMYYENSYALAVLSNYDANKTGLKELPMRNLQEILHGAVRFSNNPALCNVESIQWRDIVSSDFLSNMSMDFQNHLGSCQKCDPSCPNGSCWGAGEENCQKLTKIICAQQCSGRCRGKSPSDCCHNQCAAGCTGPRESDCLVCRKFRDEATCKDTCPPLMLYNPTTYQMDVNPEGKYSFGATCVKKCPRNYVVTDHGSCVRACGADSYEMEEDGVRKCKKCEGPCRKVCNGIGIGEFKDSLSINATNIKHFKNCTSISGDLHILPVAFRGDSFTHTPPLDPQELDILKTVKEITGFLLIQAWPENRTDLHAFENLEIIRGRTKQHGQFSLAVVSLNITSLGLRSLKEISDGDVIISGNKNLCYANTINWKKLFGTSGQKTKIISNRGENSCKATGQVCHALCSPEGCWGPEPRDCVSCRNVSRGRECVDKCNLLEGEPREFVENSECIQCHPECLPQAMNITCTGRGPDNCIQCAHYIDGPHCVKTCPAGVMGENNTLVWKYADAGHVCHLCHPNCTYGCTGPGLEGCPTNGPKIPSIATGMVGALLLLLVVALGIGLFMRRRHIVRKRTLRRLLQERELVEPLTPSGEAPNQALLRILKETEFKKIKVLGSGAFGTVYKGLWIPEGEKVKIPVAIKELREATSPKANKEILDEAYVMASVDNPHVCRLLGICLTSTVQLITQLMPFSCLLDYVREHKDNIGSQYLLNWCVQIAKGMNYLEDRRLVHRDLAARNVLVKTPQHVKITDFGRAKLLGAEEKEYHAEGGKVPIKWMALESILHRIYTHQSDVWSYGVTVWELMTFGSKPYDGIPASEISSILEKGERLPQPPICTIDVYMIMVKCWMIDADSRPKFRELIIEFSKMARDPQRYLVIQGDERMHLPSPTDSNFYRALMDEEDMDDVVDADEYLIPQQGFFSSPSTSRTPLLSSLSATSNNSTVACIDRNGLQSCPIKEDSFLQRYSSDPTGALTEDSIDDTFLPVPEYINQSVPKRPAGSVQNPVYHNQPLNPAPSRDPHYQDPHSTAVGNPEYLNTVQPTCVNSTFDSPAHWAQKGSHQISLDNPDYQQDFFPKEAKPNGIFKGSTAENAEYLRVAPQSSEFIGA
# assay-overview: Ba/F3 cell viability, Cell Titer Glo
# recorded-conditions: read-out: IC50 Values; Ba/F3 cells expressing EGFR L858R G796S, 72 hours
metric-name: IC50
Provide a numeric answer, followed by its unit.

State its IC50 on EGFR L858R G796S (Homo sapiens, UniProt P00533, G796S/L858R): C=CC(=O)N1CC[C@@H](Oc2nc(Nc3ccc(N4CCC(N5CCN(C)CC5)CC4)cc3)c(C(N)=O)nc2CC)C1 [Naquotinib]
423 nM

---

# target-of-assay: EGFR L858R/T790M (Homo sapiens, UniProt P00533, L858R/T790M)
# Sequence (P00533 25-1210 T790M/L858R): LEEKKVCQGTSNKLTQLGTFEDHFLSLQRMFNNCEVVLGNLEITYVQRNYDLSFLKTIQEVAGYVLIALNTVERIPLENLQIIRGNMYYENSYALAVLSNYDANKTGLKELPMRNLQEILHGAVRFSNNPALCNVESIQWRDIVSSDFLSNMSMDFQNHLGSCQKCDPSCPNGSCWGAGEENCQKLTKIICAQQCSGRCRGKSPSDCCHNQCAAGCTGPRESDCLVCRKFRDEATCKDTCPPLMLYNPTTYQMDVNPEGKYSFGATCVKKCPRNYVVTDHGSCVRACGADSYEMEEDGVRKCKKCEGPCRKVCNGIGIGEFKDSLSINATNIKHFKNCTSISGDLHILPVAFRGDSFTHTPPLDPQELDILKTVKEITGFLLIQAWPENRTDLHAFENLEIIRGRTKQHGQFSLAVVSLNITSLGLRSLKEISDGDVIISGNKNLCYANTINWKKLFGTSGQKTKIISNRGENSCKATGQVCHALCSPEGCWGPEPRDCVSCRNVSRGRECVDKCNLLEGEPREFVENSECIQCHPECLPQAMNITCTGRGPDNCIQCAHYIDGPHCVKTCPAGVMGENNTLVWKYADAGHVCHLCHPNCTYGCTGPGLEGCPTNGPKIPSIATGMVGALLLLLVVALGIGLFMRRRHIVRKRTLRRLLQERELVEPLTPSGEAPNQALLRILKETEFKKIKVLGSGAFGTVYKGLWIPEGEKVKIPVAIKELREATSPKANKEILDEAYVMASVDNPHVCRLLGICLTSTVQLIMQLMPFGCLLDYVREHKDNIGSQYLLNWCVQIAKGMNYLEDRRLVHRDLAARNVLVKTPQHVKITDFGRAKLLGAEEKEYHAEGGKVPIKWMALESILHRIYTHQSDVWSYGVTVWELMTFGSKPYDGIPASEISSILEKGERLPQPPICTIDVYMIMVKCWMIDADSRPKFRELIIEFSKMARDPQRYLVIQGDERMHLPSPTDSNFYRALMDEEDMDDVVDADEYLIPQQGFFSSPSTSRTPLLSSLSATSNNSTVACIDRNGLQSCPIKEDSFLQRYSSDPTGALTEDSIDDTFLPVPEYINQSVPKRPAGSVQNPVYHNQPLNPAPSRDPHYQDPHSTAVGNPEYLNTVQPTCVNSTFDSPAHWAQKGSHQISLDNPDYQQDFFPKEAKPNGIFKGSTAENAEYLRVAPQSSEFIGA
# assay-overview: Ba/F3 cell viability, Cell Titer Glo
# recorded-conditions: read-out: IC50 Values; Ba/F3 cells expressing EGFR L858R/T790M, 72 hours
metric-name: pIC50
API: returns pIC50 as number; meaning -log10 of concentration in mol/L.

> print(dat)
                                   compound  readout.number
1  COc1cc(N2CCC(N)CC2)ccc1Nc1ncc(Cl)c(-c2c[nH]c3ccccc23)n1 [AZD3463]            5.62

Proceeding to the next compound to report its pIC50.
pIC50 for C=CC(=O)N1CC[C@@H](Oc2nc(Nc3ccc(N4CCC(N5CCN(C)CC5)CC4)cc3)c(C(N)=O)nc2CC)C1 [Naquotinib] ?
8.73

---

Readings of IC50 for the listed compounds
# target-of-assay: EGFR S768I/T790M (Homo sapiens, UniProt P00533, S768I/T790M)
# Sequence (P00533 25-1210 S768I/T790M): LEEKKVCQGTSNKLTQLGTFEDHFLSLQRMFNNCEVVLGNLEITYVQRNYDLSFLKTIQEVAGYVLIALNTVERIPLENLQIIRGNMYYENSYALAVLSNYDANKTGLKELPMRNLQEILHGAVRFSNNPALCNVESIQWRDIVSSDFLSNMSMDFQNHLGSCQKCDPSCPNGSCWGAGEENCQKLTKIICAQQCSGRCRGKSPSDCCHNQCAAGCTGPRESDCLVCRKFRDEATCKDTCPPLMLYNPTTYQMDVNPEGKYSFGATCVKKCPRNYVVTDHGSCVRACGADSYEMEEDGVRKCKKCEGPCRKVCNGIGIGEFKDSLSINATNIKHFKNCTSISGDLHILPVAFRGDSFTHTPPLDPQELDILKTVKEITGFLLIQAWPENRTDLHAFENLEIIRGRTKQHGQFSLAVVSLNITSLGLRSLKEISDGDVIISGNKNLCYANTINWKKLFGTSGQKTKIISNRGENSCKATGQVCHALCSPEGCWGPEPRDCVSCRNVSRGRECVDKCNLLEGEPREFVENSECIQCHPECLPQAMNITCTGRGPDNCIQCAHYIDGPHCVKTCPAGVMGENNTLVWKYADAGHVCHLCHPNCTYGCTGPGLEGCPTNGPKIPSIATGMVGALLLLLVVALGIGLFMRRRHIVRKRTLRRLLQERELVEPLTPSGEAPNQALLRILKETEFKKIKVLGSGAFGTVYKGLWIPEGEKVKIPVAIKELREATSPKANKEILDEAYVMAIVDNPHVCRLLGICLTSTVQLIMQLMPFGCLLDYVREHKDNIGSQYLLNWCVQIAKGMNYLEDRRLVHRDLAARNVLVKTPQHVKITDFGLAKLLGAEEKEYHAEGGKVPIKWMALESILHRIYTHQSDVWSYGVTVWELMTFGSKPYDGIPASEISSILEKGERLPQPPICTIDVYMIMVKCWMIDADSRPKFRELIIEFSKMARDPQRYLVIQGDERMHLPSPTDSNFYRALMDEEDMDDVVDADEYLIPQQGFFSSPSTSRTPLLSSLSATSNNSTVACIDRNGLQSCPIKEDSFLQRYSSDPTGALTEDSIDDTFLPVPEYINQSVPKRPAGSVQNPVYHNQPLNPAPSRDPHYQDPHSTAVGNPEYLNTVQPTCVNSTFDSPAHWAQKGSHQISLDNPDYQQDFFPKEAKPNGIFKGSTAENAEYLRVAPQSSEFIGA
# assay-overview: Ba/F3 cell viability, Cell Titer Glo
# recorded-conditions: read-out: IC50 Values; Ba/F3 cells expressing EGFR S768I/T790M, 72 hours
Express the result in nM but write the number alone.

> print(dat)
                                   compound  metric.name  readout.number
1  COc1cc(N2CCC(N)CC2)ccc1Nc1ncc(Cl)c(-c2c[nH]c3ccccc23)n1 [AZD3463]         IC50            1730

Proceeding to the next compound to report its IC50.
IC50 for C=CC(=O)N1CC[C@@H](Oc2nc(Nc3ccc(N4CCC(N5CCN(C)CC5)CC4)cc3)c(C(N)=O)nc2CC)C1 [Naquotinib] ?
19.2
